Biological target: T1, CRBN, Q96SW2;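 note: pooled lentiviral library of zinc finger degron-EGFP fusions in mCherry-positive Jurkat cells, FACS-sorted after compound exposure, with degron abundance counted by next-generation sequencing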
T1 chain: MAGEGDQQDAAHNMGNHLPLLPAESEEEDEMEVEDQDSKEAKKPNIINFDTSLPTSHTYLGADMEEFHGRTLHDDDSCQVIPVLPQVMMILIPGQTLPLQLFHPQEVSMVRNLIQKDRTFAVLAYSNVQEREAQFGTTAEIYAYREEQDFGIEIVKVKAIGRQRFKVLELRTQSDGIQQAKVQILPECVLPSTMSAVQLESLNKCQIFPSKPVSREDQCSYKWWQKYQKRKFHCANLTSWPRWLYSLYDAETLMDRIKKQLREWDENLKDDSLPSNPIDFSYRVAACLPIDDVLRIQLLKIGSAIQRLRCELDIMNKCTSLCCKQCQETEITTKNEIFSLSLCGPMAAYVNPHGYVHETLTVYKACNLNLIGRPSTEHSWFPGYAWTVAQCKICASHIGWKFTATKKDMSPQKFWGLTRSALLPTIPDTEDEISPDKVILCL
Assay: log2 fold change of degron read counts, EGFP-low vs EGFP+ sorted cells (limma voom), compound-induced degradation; higher = more compound-induced degradation of the degron-EGFP fusion; degrons are variants of IKZF1/3 zinc finger 2; compound dose not given here
Conditions: Jurkat; 18 h; compound: compound 33 (diphenyl IMiD analogue)
Over roughly 8,300 sequences, “log2 fold change of degron read counts, EGFP-low vs EGFP+ sorted cells (limma voom), compound-induced degradation” has its median near -1.1; the highest 2% begin near 3.2. Many of the other results were omitted from the sample, so the highest values are more common in it than they were.
attribute-measured: log2 fold change of degron read counts

For the sequence shown here, FWCPICGRPFTQKGNLLRHIKL [46F_47W_49P_50I_52G_53R_54P_55F_67L_, Q9UKT9] , give the reported log2 fold change of degron read counts.
1.24

# lookup: log2 fold change of degron read counts of FTCEQCGAHFTQKGNLLRHIKL [46F_47T_49E_50Q_52G_53A_54H_55F_67L_, Q9UKT9]
-0.151

Query: log2 fold change of degron read counts; subject: FWCEVCGAHFTQKGNLLRHIKL [46F_47W_49E_50V_52G_53A_54H_55F_67L_, Q9UKT9]
1.96

Form field: reported log2 fold change of degron read counts of LNCEICGFSCTQKGNLLRHIKL [46L_47N_49E_50I_52G_53F_54S_55C_67L_, Q9UKT9]
-0.0305

Given LHCEICGFSCTQKGNLLRHIKL [46L_47H_49E_50I_52G_53F_54S_55C_67L_, Q9UKT9] , state its recorded log2 fold change of degron read counts.
2.27

Tell me the measured log2 fold change of degron read counts of LVCEICGFSCTQKGNLLRHIKL [46L_47V_49E_50I_52G_53F_54S_55C_67L_, Q9UKT9] , please.
2.52

What does the data say about its log2 fold change of degron read counts? Entry: FACEVCGAHFTQKGNLLRHIKL [46F_47A_49E_50V_52G_53A_54H_55F_67L_, Q9UKT9]
0.411

# query: log2 fold change of degron read counts of entry FFCEVCGAAFTQKGNLLRHIKL [46F_47F_49E_50V_52G_53A_54A_55F_67L_, Q9UKT9]
2.35

Which log2 fold change of degron read counts is listed for FTCEVCGAHFTQKGNLLRHIKL [46F_47T_49E_50V_52G_53A_54H_55F_67L_, Q9UKT9] ?
1.47

Item FMCEQCGATFTQKGNLLRHIKL [46F_47M_49E_50Q_52G_53A_54T_55F_67L_, Q9UKT9] has what recorded log2 fold change of degron read counts?
0.0969
